tested on: Colon cancer organoid; test: Optimized Dual-Glo assay to identify co-culture induced drug vulnerabilities using donated chemical probes and chemogenomics kinase set in O14 CRC organoid and F14 CAF mono and co-culture. […] Cell viability is reported both mono and co-culture models.; format: functional, Homo sapiens; parameters: dose or concentration left out as unconfirmed; details: Culture type Mono-Culture; Transduced with Renilla-dsRed lentivirus
property: Cell Viability (%)
Report the value in % with no unit label.

| molecule | Cell Viability (%) |
| --- | --- |
| O=C1CCc2cc(Nc3cc(OC4CCOCC4)c([N+](=O)[O-])cc3Cl)ccc2N1 | 117.869 |
| CC(C)NC(=O)N1CC[C@H](NC2=Nc3cc(F)ccc3N(CC(F)F)c3ccc(Cl)cc32)C1 | 100.505 |
| C[C@H](c1ccnc(Nc2nc3ccc(-c4cc(N(C)C)ncn4)cc3[nH]2)c1)N1CCN(C(=O)CC(F)(F)F)CC1 | 77.4572 |
| COc1cc2c(NC3CCN(C(C)C)CC3)nc(N3CCC(F)(F)CC3)nc2cc1OCCCN1CCCC1 | 67.5673 |
| O=C(Nc1nc2cccc(-c3ccc(CN4CCS(=O)(=O)CC4)cc3)n2n1)C1CC1 | 102.655 |
| O=C(Nc1ccc(-c2ccnc(Nc3ccc(N4CCOCC4)cc3)n2)cc1)[C@@H]1CCCN1 | 98.0054 |
| CC#CC(=O)N1CCC[C@H]1c1nc(-c2ccc(C(=O)Nc3ccccn3)cc2)c2c(N)nccn12 | 100.701 |
| COCCN1CCC(c2cc(CN(C)C(=O)c3cccc(Oc4ccccc4)c3)ccn2)CC1 | 112.74 |

Task: Which Cell Viability is reported with Colon cancer organoid for this entry: "C[C@]1(O)C[C@@H](c2nc(-c3ccc4ccc(-c5ccccc5)nc4c3)c3c(N)nccn32)C1" ?
Output: 83.4141

Task: How about this molecule: "CN(C)C(=O)c1ccc(-c2cc(C(=O)N(C)C3CCCC3)no2)cc1O"
Output: 115.997

Task: How about this molecule: "CN1CCN(C(=O)C(C)(C)c2ccc(C(=O)Nc3cn4cc(-c5ccncc5)ccc4n3)cc2)CC1"
Output: 93.5791
